B1: library; a variant is named by its letters at N, in order (parent)
chain: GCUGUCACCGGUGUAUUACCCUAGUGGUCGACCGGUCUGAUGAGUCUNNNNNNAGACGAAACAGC

- Variants of: B1
- Experiment: FACS-Seq fitted mean relative fluorescence mCherry/BFP with ligand (log10 relative fluorescence); ligand: hypoxanthine (xanthine aptamer); ligand concentration (+) FACS-Seq: 5 mM; higher = higher reporter protein expression
- Measurement conditions: HEK293T, ligand present: yes
Record form. Attribute: FACS-Seq fitted mean (log10). Fill in for each entry.

Request: Quick one: FACS-Seq fitted mean (log10) of ACGAUA ?
Response: 0.508

Request: What about this variant? ACUCUU
Response: 0.517

Request: What about this variant? AAAGUG
Response: 0.47

Request: What about this variant? ACGCAU
Response: 0.534

Request: What about this variant? AGAUGA
Response: 0.591

Request: What about this variant? GCACUU
Response: 0.751

Request: What about this variant? UGACUA
Response: 0.141

Request: What about this variant? GGAGAA
Response: 0.643

Request: What about this variant? UAACGU
Response: 0.365

Request: What about this variant? AUAUAG
Response: 0.611

Request: What about this variant? CGAAAA
Response: 0.67

Request: What about this variant? AACUUU
Response: 0.348

Request: What about this variant? CCGAGG
Response: 0.423

Request: What about this variant? CGGAAA
Response: 0.587

Request: What about this variant? AGCAUG
Response: -0.275

Request: What about this variant? ACCAAU
Response: 0.157

Request: What about this variant? UCGCAA
Response: 0.599

Request: What about this variant? GACGAC
Response: -0.465

Request: What about this variant? GUCCAA
Response: 0.655

Request: What about this variant? GUACGU
Response: 0.626

Request: What about this variant? GGUACG
Response: 0.506

Request: What about this variant? GUCGGG
Response: -0.0447

Request: What about this variant? GGGAAU
Response: 0.654

Request: What about this variant? UCAACA
Response: 0.297

Request: What about this variant? GCGCAG
Response: 0.617

Request: What about this variant? AUAAUG
Response: 0.551

Request: What about this variant? AACUGA
Response: -0.204

Request: What about this variant? CGAGUC
Response: 0.106

Request: What about this variant? AUUUUG
Response: 0.466

Request: What about this variant? CCCCAA
Response: -0.16

Request: What about this variant? UUCUCG
Response: 0.362

Request: What about this variant? AUGGUG
Response: 0.0458

Request: What about this variant? GAGUUU
Response: 0.348

Request: What about this variant? GGCGUG
Response: 0.291

Request: What about this variant? AAAAAU
Response: 0.55

Request: What about this variant? ACACGU
Response: 0.572

Request: What about this variant? AGCGUC
Response: 0.743

Request: What about this variant? AAACAG
Response: 0.234

Request: What about this variant? UGUUAU
Response: -0.287

Request: What about this variant? AAUUGA
Response: -0.112

Request: What about this variant? GAAACG
Response: 0.561

Request: What about this variant? GCCAUA
Response: 0.487

Request: What about this variant? AUACCG
Response: 0.282

Request: What about this variant? CUGCGA
Response: -0.114

Request: What about this variant? AAGGAA
Response: 0.411

Request: What about this variant? GGAGCA
Response: 0.686

Request: What about this variant? GCUUAG
Response: 0.791

Request: What about this variant? CCAGAG
Response: 0.741

Request: What about this variant? UCAUAG
Response: 0.567

Request: What about this variant? GAACGC
Response: 0.684

Request: What about this variant? GCAGAU
Response: -0.2

Request: What about this variant? AACGGC
Response: 0.696

Request: What about this variant? UCUAAG
Response: 0.678

Request: What about this variant? CAAUUG
Response: 0.498

Request: What about this variant? UCCUGC
Response: 0.812

Request: What about this variant? GCCUAG
Response: 0.678

Request: What about this variant? GGGUAG
Response: 0.395

Request: What about this variant? UCCAAA
Response: 0.0172

Request: What about this variant? GCGAUG
Response: 0.754

Request: What about this variant? ACAAUG
Response: 0.638

Request: What about this variant? AGCCUU
Response: 0.317

Request: What about this variant? GAGUCA
Response: 0.707

Request: What about this variant? UCAAUC
Response: 0.543

Request: What about this variant? AUAUUG
Response: 0.486

Request: What about this variant? GAAGGG
Response: 0.431

Request: What about this variant? AUAGUA
Response: 0.621

Request: What about this variant? CUGCAG
Response: 0.677

Request: What about this variant? UGCCAG
Response: 0.288

Request: What about this variant? AUUGGG
Response: 0.592

Request: What about this variant? CGAUUA
Response: 0.569

Request: What about this variant? UACGGA
Response: 0.703

Request: What about this variant? AAGUAC
Response: 0.673

Request: What about this variant? GUUUAA
Response: 0.204

Request: What about this variant? AUCGAG
Response: 0.4

Request: What about this variant? UAUUAA
Response: 0.724

Request: What about this variant? GGUGCU
Response: 0.475

Request: What about this variant? GUUUUU
Response: 0.1

Request: What about this variant? GGAGGU
Response: 0.48

Request: What about this variant? GCGGUA
Response: 0.677

Request: What about this variant? UGGAGG
Response: 0.592

Request: What about this variant? GCAGAA
Response: 0.472

Request: What about this variant? GAGAAG
Response: 0.342

Request: What about this variant? UUGAGA
Response: 0.649

Request: What about this variant? CUUUAU
Response: 0.344
